Below is a list of entries, each paired with its recorded ddG of mutation (higher = less stable) value.
B1: Cytochrome c2, P00094 (parent)
chain: MKISLTAATVAALVLAAPAFAGDAAKGEKEFNKCKTCHSIIAPDGTEIVKGAKTGPNLYGVVGRTAGTYPEFKYKDSIVALGASGFAWTEEDIATYVKDPGAFLKEKLDDKKAKTGMAFKLAKGGEDVAAYLASVVK

variants of: B1; conditions: Rhodobacter capsulatus (strain ATCC BAA-309 / NBRC 16581 / SB1003); pH 7.5; 25 °C; GdnHCl; CD; Tris-HCl 20 mM; NaCl 40 mM; structure 1C2R; whole UniProt chain shown

SEQ STRING	ddG of mutation (higher = less stable), kcal/mol
MKISLTAATVAALVLAAPAFAGDAAKGEKEFNKCETCHSIIAPDGTEIVKGAKTGPNLYGVVGRTAGTYPEFKYKDSIVALGASGFAWTEEDIATYVKDPGAFLKEKLDDKKAKTGMAFKLAKGGEDVAAYLASVVK [K35E]	0.9
MKISLTAATVAALVLAAPAFAGDAAKGEKEFNKCETCHSIIAPDGTEIVKGAETGPNLYGVVGRTAGTYPEFKYKDSIVALGASGFAWTEEDIATYVKDPGAFLKEKLDDKKAKTGMAFKLAKGGEDVAAYLASVVK [K35E K53E]	0.8
MKISLTAATVAALVLAAPAFAGDAAKGEKEFNKCKTCHSIIAPDGTEIVKGAETGPNLYGVVGRTAGTYPEFKYKDSIVALGASGFAWTEEDIATYVKDPGAFLKEKLDDKKAKTGMAFKLAKGGEDVAAYLASVVK [K53E]	-0.4
MKISLTAATVAALVLAAPAFAGDAAKGEKEFNDCKTCHSIIAPDGTEIVKGAKTGPNLYGVVGRTAGTYPEFKYKDSIVALGASGFAWTEEDIATYVKDPGAFLKEKLDDKKAKTGMAFKLAKGGEDVAAYLASVVK [K33D]	1.1

# credit: FireProtDB (doi:10.1021/bi00102a015)
